System: Neisseria meningitidis
Test: Expected efficacy of anti-bacterial agents against various bacteria (Tables 5 and 6)
Conditions: Gram: neg
measuredEndpoint: Efficacy of various antibiotic agents

// below: answered compounds
# smilesInput, Efficacy of various antibiotic agents
data = [
    ("CN[C@H](CC(C)C)C(=O)N[C@H]1C(=O)N[C@@H](CC(N)=O)C(=O)N[C@H]2C(=O)N[C@H]3C(=O)N[C@H](C(=O)N[C@H](C(=O)O)c4cc(O)cc(O)c4-c4cc3ccc4O)[C@H](O)c3ccc(c(Cl)c3)Oc3cc2cc(c3O[C@@H]2O[C@H](CO)[C@@H](O)[C@H](O)[C@H]2O[C@H]2C[C@](C)(N)[C@H](O)[C@H](C)O2)Oc2ccc(cc2Cl)[C@H]1O", "no"),
    ("O=C(O)c1cn(C2CC2)c2cc(N3CCNCC3)c(F)cc2c1=O", "yes"),
    ("NC[C@H]1O[C@H](O[C@H]2[C@H](O)[C@@H](O[C@H]3O[C@H](CO)[C@@H](O)[C@H](N)[C@H]3O)[C@H](N)C[C@@H]2N)[C@H](N)C[C@@H]1O", "no"),
    ("CC[C@H]1OC(=O)[C@H](C)[C@@H](O[C@H]2C[C@@](C)(OC)[C@@H](O)[C@H](C)O2)[C@H](C)[C@@H](O[C@@H]2O[C@H](C)C[C@H](N(C)C)[C@H]2O)[C@](C)(O)C[C@@H](C)CN(C)[C@H](C)[C@@H](O)[C@]1(C)O", "yes"),
    ("C/C(=C\\C(=O)OCCCCCCCCC(=O)O)C[C@@H]1OC[C@H](C[C@@H]2O[C@H]2[C@@H](C)[C@H](C)O)[C@@H](O)[C@H]1O", "no"),
]

Next compound, please.
Item "CO/N=C(\C(=O)N[C@@H]1C(=O)N2C(C(=O)O)=C(CSc3nc(=O)c(=O)[nH]n3C)CS[C@H]12)c1csc(N)n1" has what recorded Efficacy of various antibiotic agents? yes
